Each entry below lists one item and its recorded TGI value.
system: K-562 leukemia; test: NCI tumour cell line growth inhibition, 48 h
TEST_READOUT: TGI

> print(dat)
                                   compound    result
1  O=C1CSC(c2ccccc2)N1c1ccc(-n2c(-c3ccccc3)nc3ccccc3c2=O)cc1 (stereo not given)  > 100 µM
2  Cn1c(=O)nc2n(-c3ccc(Cl)cc3)c3cc(Cl)ccc3nc-2c1=O   5.41 µM
3  O=C1CC(c2ccccc2)Cc2nc3ccc(Br)cc3cc21 (stereo not given)  > 100 µM
4  COc1cc2c(c(O)c1OC)C(=O)[C@@H]1CCC(=O)N1C2c1ccccc1 (stereo not given in full)  > 100 µM
5  Cc1c(/C=N/NC(=S)Nc2ccc(Cl)cc2)c(=O)n(-c2ccccc2)n1C  > 100 µM

---

tested on: U251 CNS; test: NCI tumour cell line growth inhibition, 48 h
Item-by-item account of TGI
TEST_READOUT: TGI (µM)

> print(dat)
                                   compound  test.readout  relation.symbol  number
1  Cc1ccc2cccc(OC(=O)Nc3cccc(C(F)(F)F)c3)c2n1           TGI                =    12.2
2  N#CC1=C2SCCN2C(=O)C(C#N)C12CCCCC2 (centres undefined)           TGI                >     100
3  CC(C)(c1ccccc1)c1cc(O)c(C(C)(C)c2ccccc2)cc1O           TGI                =    9.97
4  NS(=O)(=O)c1ccc(Nc2c3ccccc3nc3c(C(=O)N4CCN(CCO)CC4)cccc23)cc1           TGI                >     100
5    CC(C)(C)C(=O)Nc1cccc2oc(-c3ccccc3)cc12           TGI                >     100
6  COc1ccc2c(c1)-c1c(c3cc(OC)ccc3n1CCCN(C)C)CC2           TGI                =      27
7  CCCCCCCCCCCCCC1=C(O)C(=O)C(CC2=C(O)C(=O)C(CCCCCCCCCCCCC)=C(O)C2=O)=C(O)C1=O           TGI                >     100
8  COC1(C)C(=O)N2C1N(C(=O)OC(C)(C)C)CC2(C)C (centres undefined)           TGI                >     100
9  CC(=O)CC/C=C(\C)[C@H](O)[C@H](C)C(=O)O[C@H]1C[C@H](C)C=C2C=C[C@@]3(C)O[C@@H](O)CC(=O)[C@]3(C)[C@H]21           TGI                =     2.8

---

test system: SF-268 CNS; assay: NCI tumour cell line growth inhibition, 48 h

COMPOUND	RELATION_SYMBOL	TGI, µM
O=C1C2CCCCC2C(=O)N1n1c(-c2ccccc2)n[nH]c1=O (centres undefined)	>	100
CCC/C(Cl)=N/OC(=O)Nc1cc(C(F)(F)F)ccc1OC	=	29.8
CCCCCCCCCCCCCCCCCCNc1ccn(C2OC(CO)C(OP(=O)(O)OCC(O)COP(=O)(O)OCC3OC(n4cc(F)c(NCCCCCCCCCCCCCCCCCC)nc4=O)CC3O)C2O)c(=O)n1 (centres undefined)	>	50
CC(C)(C)C1CCC2c3c([nH]c4ccccc34)C3C(=O)N(c4ccccc4Cl)C(=O)C3C2C1 (centres undefined)	=	35.5
